# measured target: purified recombinant porcine PREP (Sus scrofa)
# Construct: made in house; host or cells: E. coli
# Sequence (P23687 whole entry): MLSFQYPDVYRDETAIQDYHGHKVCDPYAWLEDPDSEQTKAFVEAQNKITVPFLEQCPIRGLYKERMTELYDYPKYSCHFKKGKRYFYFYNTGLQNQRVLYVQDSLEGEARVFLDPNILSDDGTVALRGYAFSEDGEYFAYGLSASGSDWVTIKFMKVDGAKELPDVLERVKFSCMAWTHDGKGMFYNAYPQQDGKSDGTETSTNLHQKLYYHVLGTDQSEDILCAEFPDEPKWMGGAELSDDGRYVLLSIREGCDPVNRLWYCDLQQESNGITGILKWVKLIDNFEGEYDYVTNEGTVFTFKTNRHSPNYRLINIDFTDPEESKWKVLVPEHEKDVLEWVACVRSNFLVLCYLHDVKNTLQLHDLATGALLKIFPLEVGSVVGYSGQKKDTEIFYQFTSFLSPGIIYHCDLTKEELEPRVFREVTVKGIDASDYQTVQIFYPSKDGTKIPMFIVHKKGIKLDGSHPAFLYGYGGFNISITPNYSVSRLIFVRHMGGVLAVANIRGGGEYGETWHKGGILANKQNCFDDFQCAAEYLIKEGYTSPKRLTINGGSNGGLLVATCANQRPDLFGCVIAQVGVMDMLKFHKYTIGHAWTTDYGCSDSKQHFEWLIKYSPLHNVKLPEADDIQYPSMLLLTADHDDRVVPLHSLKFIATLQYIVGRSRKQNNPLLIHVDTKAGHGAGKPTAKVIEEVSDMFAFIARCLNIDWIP
# protocol notes: Inhibition of the proteolytic activity of PREP, microplate assay with Suc-Gly-Pro-AMC substrate
# Assay type: biochemical
# assay conditions: recombinant porcine PREP, Suc-Gly-Pro-AMC, 30 °C, pH 7.0; 95% CI in brackets
reported metric: IC50 (nM)

C[C@H](NC(=O)CCCc1ccccc1)C(=O)N1CCC[C@H]1c1ncc[nH]1 [Compound 27b] ... 2100
C[C@H](NC(=O)CCCc1cccs1)C(=O)N1CCC[C@H]1c1nnn[nH]1 [Compound 17b] ... 1100
O=C(CCc1ccccc1)N1CCC[C@H]1C(=O)N1CCC[C@H]1c1nnn[nH]1 [Compound 15a] ... 1000

P = Cn1nnnc1[C@@H]1CCCN1C(=O)[C@@H]1CCCN1C(=O)CCCc1ccccc1 [Compound 18a]
Q = C[C@H](NC(=O)CCCCc1ccccc1)C(=O)N1CCC[C@H]1c1nnn[nH]1 [Compound 16b]
R = O=C(CCCCc1ccccc1)N1CCC[C@H]1C(=O)N1CCC[C@H]1c1nnn[nH]1 [Compound 16a]
Order the entries by their reported IC50, beginning at the minimum. Write out the labels following the order that was asked for.
R, Q, P
(R: 770 nM, Q: 5000 nM, P: 520000 nM)
